Source listed as ChEMBL document CHEMBL3576826.

# experimental-system: Nitric oxide synthase, inducible (Mus musculus)
# Sequence (P29477 whole entry): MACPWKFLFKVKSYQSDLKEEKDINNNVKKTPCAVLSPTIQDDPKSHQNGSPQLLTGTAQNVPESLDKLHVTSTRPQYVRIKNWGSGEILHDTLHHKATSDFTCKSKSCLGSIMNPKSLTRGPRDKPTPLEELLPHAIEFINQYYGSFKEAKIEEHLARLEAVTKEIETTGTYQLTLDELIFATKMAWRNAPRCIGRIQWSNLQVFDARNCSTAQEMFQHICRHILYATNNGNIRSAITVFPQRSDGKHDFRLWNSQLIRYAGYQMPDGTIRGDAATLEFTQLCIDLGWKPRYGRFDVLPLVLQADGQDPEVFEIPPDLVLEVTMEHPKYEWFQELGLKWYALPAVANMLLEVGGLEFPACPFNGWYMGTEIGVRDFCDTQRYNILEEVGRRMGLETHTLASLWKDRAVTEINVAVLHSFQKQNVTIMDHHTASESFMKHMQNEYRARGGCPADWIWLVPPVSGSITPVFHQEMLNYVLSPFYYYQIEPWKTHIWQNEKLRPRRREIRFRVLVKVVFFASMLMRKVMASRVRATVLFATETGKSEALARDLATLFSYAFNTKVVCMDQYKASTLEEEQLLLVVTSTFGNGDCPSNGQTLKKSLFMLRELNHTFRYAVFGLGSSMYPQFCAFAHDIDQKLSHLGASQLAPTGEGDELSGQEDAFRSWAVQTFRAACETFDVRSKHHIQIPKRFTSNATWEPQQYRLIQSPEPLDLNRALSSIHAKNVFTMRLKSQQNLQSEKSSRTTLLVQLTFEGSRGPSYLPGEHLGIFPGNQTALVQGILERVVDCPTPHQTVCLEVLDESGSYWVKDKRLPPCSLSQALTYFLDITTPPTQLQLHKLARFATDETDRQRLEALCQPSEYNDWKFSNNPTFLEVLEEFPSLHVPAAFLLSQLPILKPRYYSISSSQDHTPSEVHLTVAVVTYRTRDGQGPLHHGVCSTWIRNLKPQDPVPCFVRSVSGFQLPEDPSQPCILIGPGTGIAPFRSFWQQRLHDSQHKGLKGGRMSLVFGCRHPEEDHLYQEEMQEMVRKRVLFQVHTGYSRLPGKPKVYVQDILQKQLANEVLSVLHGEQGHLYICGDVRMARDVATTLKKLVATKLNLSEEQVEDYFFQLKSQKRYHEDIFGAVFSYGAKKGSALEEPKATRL
# assay-protocol: Inhibition of iNOS in LPS-stimulated mouse RAW264.7 cells assessed as inhibition of nitric oxide production after 48 hrs by Griess assay
# Type: cell-based
# conditions-used: raw264.7
Each record here notes measured IC50.
Give your result as the value with the unit written after it.

Please review the following examples before continuing.
C#CC1(C#C)C=CC(=O)C(C#N)=C1 : 210 nM
C#CC12C=C(C#N)C(=O)C=C1c1c(C)cccc1CC2 (stereo unspecified) : 940 nM
C#CC1(C=C)C=CC(=O)C(C#N)=C1 (stereo unspecified) : 16 nM
C#CC12C=C(C#N)C(=O)C=C1c1c(Br)cccc1CC2 (stereo unspecified) : 650 nM
C#CC12C=C(C#N)C(=O)C=C1C(C)(C)CC2 (stereo unspecified) : 200 nM

Request: Item: C#CC12C=C(C#N)C(=O)C=C1CCC2 (stereo unspecified) Test system: Nitric oxide synthase, inducible (Mus musculus) Read-out: IC50 Value: ?
Result: 160 nM

Request: Item: C#CC1(C)C=CC(=O)C(C#N)=C1 (stereo unspecified) Test system: Nitric oxide synthase, inducible (Mus musculus) Read-out: IC50 Value: ?
Result: 18 nM

Request: Item: CC1(C)CC[C@]2(C(=O)O)CC[C@]3(C)[C@H](C(=O)C=C4[C@@]5(C)C=C(C#N)C(=O)C(C)(C)[C@@H]5CC[C@]43C)[C@@H]2C1 [BARDOXOLONE] Test system: Nitric oxide synthase, inducible (Mus musculus) Read-out: IC50 Value: ?
Result: 23 nM

Request: Item: C#CC12C=C(C#N)C(=O)C=C1c1c(Cl)cccc1C2 (stereo unspecified) Test system: Nitric oxide synthase, inducible (Mus musculus) Read-out: IC50 Value: ?
Result: 800 nM

Request: Item: C#CC12C=C(C#N)C(=O)C=C1c1ccccc1C2 (stereo unspecified) Test system: Nitric oxide synthase, inducible (Mus musculus) Read-out: IC50 Value: ?
Result: 380 nM

Request: Item: C#C[C@]12C=C(C#N)C(=O)C=C1[C@@]1(C)C=C(C#N)C(=O)C(C)(C)[C@@H]1CC2 (racemic) Test system: Nitric oxide synthase, inducible (Mus musculus) Read-out: IC50 Value: ?
Result: 1 nM

====

# experimental-system: Kelch-like ECH-associated protein 1/Nuclear factor erythroid 2-related factor 2 (Mus musculus) (UniProt Q60795+Q9Z2X8)
# Sequence (Q60795 whole entry, looked up): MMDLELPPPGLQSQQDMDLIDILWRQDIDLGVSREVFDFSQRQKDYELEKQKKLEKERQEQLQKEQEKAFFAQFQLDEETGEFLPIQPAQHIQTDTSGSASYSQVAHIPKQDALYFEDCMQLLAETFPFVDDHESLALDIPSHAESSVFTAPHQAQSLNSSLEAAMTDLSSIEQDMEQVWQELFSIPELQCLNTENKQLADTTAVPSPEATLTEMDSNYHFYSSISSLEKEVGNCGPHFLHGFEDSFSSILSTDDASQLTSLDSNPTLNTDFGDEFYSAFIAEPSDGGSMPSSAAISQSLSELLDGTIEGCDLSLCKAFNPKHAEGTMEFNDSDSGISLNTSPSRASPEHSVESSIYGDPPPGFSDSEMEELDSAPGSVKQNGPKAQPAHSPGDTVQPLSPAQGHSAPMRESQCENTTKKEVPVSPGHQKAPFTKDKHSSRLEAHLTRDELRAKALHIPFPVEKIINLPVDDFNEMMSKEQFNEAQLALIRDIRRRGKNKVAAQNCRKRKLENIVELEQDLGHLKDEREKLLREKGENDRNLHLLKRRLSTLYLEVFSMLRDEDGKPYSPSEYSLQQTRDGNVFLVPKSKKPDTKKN
# Sequence (Q9Z2X8 whole entry, looked up): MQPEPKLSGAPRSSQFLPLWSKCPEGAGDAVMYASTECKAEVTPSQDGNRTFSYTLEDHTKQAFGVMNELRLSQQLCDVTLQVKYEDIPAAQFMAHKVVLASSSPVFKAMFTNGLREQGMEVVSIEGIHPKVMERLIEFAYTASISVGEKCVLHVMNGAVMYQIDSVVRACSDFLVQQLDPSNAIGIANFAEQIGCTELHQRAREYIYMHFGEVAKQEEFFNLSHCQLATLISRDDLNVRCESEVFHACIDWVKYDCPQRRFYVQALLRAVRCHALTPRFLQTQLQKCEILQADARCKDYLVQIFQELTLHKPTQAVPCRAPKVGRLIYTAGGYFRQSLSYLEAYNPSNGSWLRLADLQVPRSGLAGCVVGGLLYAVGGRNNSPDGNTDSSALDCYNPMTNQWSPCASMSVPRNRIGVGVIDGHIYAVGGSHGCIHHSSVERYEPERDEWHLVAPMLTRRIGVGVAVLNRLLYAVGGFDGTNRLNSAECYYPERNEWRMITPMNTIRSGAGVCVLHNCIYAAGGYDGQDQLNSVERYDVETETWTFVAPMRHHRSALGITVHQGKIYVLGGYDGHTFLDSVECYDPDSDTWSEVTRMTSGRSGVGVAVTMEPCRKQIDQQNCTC
# assay-protocol: Activation of Keap1/Nrf2/ARE pathway in mouse Hepa-1c1c7 cells assessed as double induction of NQO1 specific activity after 48 hrs by bicinchoninic acid assay
# Type: cell-based
observation-type: CD (nM)
Only the number, expressed in nM, is required.

Please review the following examples before continuing.
C#CC12C=C(C#N)C(=O)C=C1c1ccccc1C2 (centres undefined) : 41
C#CC12C=C(C#N)C(=O)C=C1c1ccccc1CC2 (centres undefined) : 150
CC1(C)CC[C@]2(C(=O)O)CC[C@]3(C)[C@H](C(=O)C=C4[C@@]5(C)C=C(C#N)C(=O)C(C)(C)[C@@H]5CC[C@]43C)[C@@H]2C1 : 2.3

Request: What value of CD has been reported for the following compound? C#CC12C=C(C#N)C(=O)C=C1c1c(Cl)cccc1C2 (centres undefined)
Result: 130

====

Each record here notes measured CD.
# experimental-system: Kelch-like ECH-associated protein 1/Nuclear factor erythroid 2-related factor 2 (Mus musculus) (UniProt Q60795+Q9Z2X8)
# assay-protocol: Activation of Keap1/Nrf2/ARE pathway in mouse Hepa-1c1c7 cells assessed as double induction of NQO1 specific activity after 48 hrs by bicinchoninic acid assay
# Type: cell-based
Only the number, expressed in nM, is required.

Please review the following examples before continuing.
C#CC1(CC)C=CC(=O)C(C#N)=C1 (configuration not stated) : 42
C[S+]([O-])CCCCN=C=S (configuration not stated) [SULFORAPHANE] : 200

Request: What value of CD has been reported for the following molecule? C#CC1(C)C=CC(=O)C(C#N)=C1 (configuration not stated)
Result: 21

Request: What value of CD has been reported for the following molecule? C#CC1(C=C)C=CC(=O)C(C#N)=C1 (configuration not stated)
Result: 20

Request: What value of CD has been reported for the following molecule? C#CC12C=C(C#N)C(=O)C=C1c1c(Br)cccc1CC2 (configuration not stated)
Result: 1300

====

# experimental-system: Nitric oxide synthase, inducible (Mus musculus)
# assay-protocol: Inhibition of iNOS in LPS-stimulated mouse RAW264.7 cells assessed as inhibition of nitric oxide production after 48 hrs by Griess assay
# Assay type: cell-based
observation-type: IC50 (nM)
Only the number, expressed in nM, is required.

Request: What value of IC50 has been reported for the following molecule? C[S+]([O-])CCCCN=C=S (stereo unspecified)
Result: 400

====

# experimental-system: Kelch-like ECH-associated protein 1/Nuclear factor erythroid 2-related factor 2 (Mus musculus) (UniProt Q60795+Q9Z2X8)
# assay-protocol: Activation of Keap1/Nrf2/ARE pathway in mouse Hepa-1c1c7 cells assessed as double induction of NQO1 specific activity after 48 hrs by bicinchoninic acid assay
# Format: cell-based
Would you mind labelling by CD? At or over 200 nM is yes, under is no.

Use these answered entries as a reference point.
C#CC12C=C(C#N)C(=O)C=C1C(C)(C)CC2 (configuration not stated) : no
C#CC1(C)C=C(C#N)C(=O)c2ccccc21 (configuration not stated) : yes
C#CC12C=C(C#N)C(=O)C=C1c1c(Cl)cccc1CC2 (configuration not stated) : yes

Request: Please check the record C#CC12C=C(C#N)C(=O)C=C1c1c(C)cccc1CC2 (configuration not stated) and state if its CD is at or above 200 nM.
Result: yes

Request: Please check the record C#C[C@]12C=C(C#N)C(=O)C=C1[C@@]1(C)C=C(C#N)C(=O)C(C)(C)[C@@H]1CC2 (racemic) and state if its CD is at or above 200 nM.
Result: no

Request: Please check the record C#CC12C=C(C#N)C(=O)C=C1CCC2 (configuration not stated) and state if its CD is at or above 200 nM.
Result: no

Request: Please check the record C#CC1(C#C)C=CC(=O)C(C#N)=C1 and state if its CD is at or above 200 nM.
Result: no
